Condition Details: in ethanol, 313.15 K
Measurement Type: solubility (mole fraction)

| Entry Smiles | Numeric Readout |
| --- | --- |
| O=C(O)Cc1ccc([N+](=O)[O-])cc1 | 0.17 |

----------
Condition Details: in n-butanol, 288.15 K
Measurement Type: solubility (mole fraction)

| Entry Smiles | Numeric Readout |
| --- | --- |
| O=C(O)Cc1ccc([N+](=O)[O-])cc1 | 0.0564 |

----------
Condition Details: in isopropanol, 313.15 K

| Entry Smiles | solubility (mole fraction) |
| --- | --- |
| O=C(O)Cc1ccc([N+](=O)[O-])cc1 | 0.0768 |

----------
Condition Details: in ethylene glycol, 288.15 K
Measurement Type: solubility (mole fraction)

| Entry Smiles | Numeric Readout |
| --- | --- |
| O=C(O)Cc1ccc([N+](=O)[O-])cc1 | 0.0185 |

----------
Condition Details: in n-butanol, 328.15 K

| Entry Smiles | solubility (mole fraction) |
| --- | --- |
| O=C(O)Cc1ccc([N+](=O)[O-])cc1 | 0.178 |

----------
Condition Details: in methanol, 308.15 K
Measurement Type: solubility (mole fraction)

| Entry Smiles | Measurement Type | Numeric Readout |
| --- | --- | --- |
| O=C(O)Cc1ccc([N+](=O)[O-])cc1 | solubility (mole fraction) | 0.218 |

----------
Condition Details: in DMF, 308.15 K

| Entry Smiles | solubility (mole fraction) |
| --- | --- |
| O=C(O)Cc1ccc([N+](=O)[O-])cc1 | 0.28 |

----------
Condition Details: in water, 328.15 K

| Entry Smiles | solubility (mole fraction) |
| --- | --- |
| O=C(O)Cc1ccc([N+](=O)[O-])cc1 | 0.00101 |

----------
Condition Details: in ethyl acetate, 323.15 K

| Entry Smiles | solubility (mole fraction) |
| --- | --- |
| O=C(O)Cc1ccc([N+](=O)[O-])cc1 | 0.116 |

----------
Condition Details: in DMAc, 293.15 K
Measurement Type: solubility (mole fraction)

| Entry Smiles | Numeric Readout |
| --- | --- |
| O=C(O)Cc1ccc([N+](=O)[O-])cc1 | 0.114 |

----------
Condition Details: in methanol, 288.15 K
Measurement Type: solubility (mole fraction)

| Entry Smiles | Result |
| --- | --- |
| O=C(O)Cc1ccc([N+](=O)[O-])cc1 | 0.137 |

----------
Condition Details: in methanol, 293.15 K

| Entry Smiles | solubility (mole fraction) |
| --- | --- |
| O=C(O)Cc1ccc([N+](=O)[O-])cc1 | 0.155 |

----------
Condition Details: in water, 313.15 K

| Entry Smiles | solubility (mole fraction) |
| --- | --- |
| O=C(O)Cc1ccc([N+](=O)[O-])cc1 | 0.000528 |

----------
Condition Details: in acetonitrile, 323.15 K

| Entry Smiles | solubility (mole fraction) |
| --- | --- |
| O=C(O)Cc1ccc([N+](=O)[O-])cc1 | 0.0761 |

----------
Condition Details: in DMAc, 313.15 K

| Entry Smiles | solubility (mole fraction) |
| --- | --- |
| O=C(O)Cc1ccc([N+](=O)[O-])cc1 | 0.191 |

----------
Condition Details: in cyclohexane, 293.15 K

| Entry Smiles | solubility (mole fraction) |
| --- | --- |
| O=C(O)Cc1ccc([N+](=O)[O-])cc1 | 2.3e-05 |
